Parameter: pH. Scope: all listed entries.
experiment: Solubility of L-cystine neutralized with fatty acids, HPLC (Example 5); conditions: pH of the cystine solution neutralized with the named acid

Sample records with pH:
>  <COMPOUND>
CCCCCCCC/C=C\CCCCCCCC(=O)O

>  <pH>
7.3

$$$$
>  <COMPOUND>
CCCCCCCCCCCC(=O)O [Dodecanoic (C12) with NaOH, Dodecanoic]

>  <pH>
7.6

$$$$
>  <COMPOUND>
O=C(O)/C=C\C(=O)O

>  <pH>
6.6

$$$$

Asked: Could you tell me which pH is on file for CCCCCCCCCCCC(=O)O [Dodecanoic (C12) with KOH, Dodecanoic] ?
Given back: 7.6
